Reference source: ChEMBL document CHEMBL5257156

# target or system: Suppressor of tumorigenicity 14 protein (Homo sapiens)
# measurement notes: Binding affinity to recombinant hexahistidine tagged human MT-SP1 (596 to 855 residues) expressed in Escherichia coli BL21 gold (DE3) cells assessed as change in enthalpy by ITC analysis
readout name: deltaH
Returns: string containing the number followed by the unit.

N=C(N)c1ccc(Oc2cc(Oc3ccc(CN)cc3)cc(Oc3ccc(CN)cc3)c2)cc1; 2.03 kcal/mol
N=C(N)c1ccc(CCNC(=O)C(C(=O)NCCc2ccc(C(=N)N)cc2)C(=O)NCc2ccc(C(=N)N)cc2)cc1 (centres undefined); -1.63 kcal/mol

Below is a list of compounds. For each, state its recorded deltaH.
1. NCc1ccc(Oc2cc(Oc3ccc(CN)cc3)cc(Oc3ccc(CN)cc3)c2)cc1
2. N=C(N)c1ccc(CCNC(=O)CC(=O)NCCc2ccc(C(=N)N)cc2)cc1

Response:
1. 1.24 kcal/mol
2. -3.35 kcal/mol
